Where do these numbers come from? They come from paper PMC5609913.

# targetSystem: G9a (Homo sapiens, UniProt Q96KQ7)
# Construct: endogenous in cells
# Sequence (Q96KQ7 1-1210): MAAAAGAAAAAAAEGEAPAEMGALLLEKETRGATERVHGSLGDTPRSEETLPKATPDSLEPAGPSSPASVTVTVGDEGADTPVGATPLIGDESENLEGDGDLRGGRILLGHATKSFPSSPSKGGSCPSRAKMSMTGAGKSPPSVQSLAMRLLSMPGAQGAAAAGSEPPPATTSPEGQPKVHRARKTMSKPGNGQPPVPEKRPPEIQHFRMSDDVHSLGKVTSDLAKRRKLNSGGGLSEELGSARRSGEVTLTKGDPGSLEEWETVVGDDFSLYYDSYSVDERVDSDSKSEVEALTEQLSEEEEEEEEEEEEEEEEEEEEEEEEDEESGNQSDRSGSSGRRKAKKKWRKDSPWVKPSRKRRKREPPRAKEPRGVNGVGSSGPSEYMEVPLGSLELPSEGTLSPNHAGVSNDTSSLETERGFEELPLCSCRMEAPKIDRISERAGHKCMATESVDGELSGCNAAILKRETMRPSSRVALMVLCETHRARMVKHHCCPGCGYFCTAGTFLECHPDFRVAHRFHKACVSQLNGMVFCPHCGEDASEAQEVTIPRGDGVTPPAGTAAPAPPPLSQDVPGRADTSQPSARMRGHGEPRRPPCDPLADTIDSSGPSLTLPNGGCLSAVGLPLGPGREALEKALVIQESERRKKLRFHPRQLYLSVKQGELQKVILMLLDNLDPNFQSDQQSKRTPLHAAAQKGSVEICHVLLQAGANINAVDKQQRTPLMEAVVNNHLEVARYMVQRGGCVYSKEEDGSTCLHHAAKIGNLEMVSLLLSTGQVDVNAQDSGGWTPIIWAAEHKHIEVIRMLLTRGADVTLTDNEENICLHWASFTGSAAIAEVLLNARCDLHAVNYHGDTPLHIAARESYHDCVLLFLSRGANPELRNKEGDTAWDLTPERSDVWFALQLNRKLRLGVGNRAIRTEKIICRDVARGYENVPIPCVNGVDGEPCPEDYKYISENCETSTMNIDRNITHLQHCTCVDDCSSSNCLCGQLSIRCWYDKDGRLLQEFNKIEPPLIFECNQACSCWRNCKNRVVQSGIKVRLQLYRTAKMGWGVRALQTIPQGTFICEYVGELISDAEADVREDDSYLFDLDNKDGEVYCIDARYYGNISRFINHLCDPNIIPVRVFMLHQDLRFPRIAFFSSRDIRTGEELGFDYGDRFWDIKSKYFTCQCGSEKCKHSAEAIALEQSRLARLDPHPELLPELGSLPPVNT
# assayText: H3K9Me2 cell immunofluorescence In-Cell Western (ICW) assay in MDA-MB-231
# studyConditions: MDA-MB-231 cell line, 48 h exposure
measurementName: IC50 (µM)
Answers are plain numbers, in µM.

Consider the reported IC50 for these compounds:
[[record]]
compound = "COc1cc2nc(NCCNC(=O)CCCC(=O)NO)nc(NC3CCN(C)CC3)c2cc1OC"
resultunits = "µM"
resultnumber = 76.7

[[record]]
compound = "COc1cc2nc(NCCNC(=O)CCCCCC(=O)NO)nc(NC3CCN(Cc4ccccc4)CC3)c2cc1OC"
resultunits = "µM"
resultnumber = 87.4

[[record]]
compound = "COc1ccc2c(NC3CCN(Cc4ccccc4)CC3)nc(NCCNC(=O)CCCCCCC(=O)NO)nc2c1"
resultunits = "µM"
resultnumber = 37.8

[[record]]
compound = "COc1ccc2c(NC3CCN(C)CC3)nc(NCCNC(=O)CCCCC(=O)NO)nc2c1 [Compound 15a]"
resultunits = "µM"
resultnumber = 47

[[record]]
compound = "COc1ccc2c(NC3CCN(Cc4ccccc4)CC3)nc(NCCNC(=O)CCCC(=O)NO)nc2c1"
resultunits = "µM"
resultnumber = 90.3


# batch: return IC50 for each of the 6 compounds below
1. COc1ccc2c(NC3CCN(C)CC3)nc(NCCNC(=O)CCCC(=O)NO)nc2c1 [Compound 16a]
2. COc1ccc2c(NC3CCN(Cc4ccccc4)CC3)nc(NCCNC(=O)CCCCCC(=O)NO)nc2c1
3. COc1cc2nc(NCCNC(=O)CCCCCC(=O)NO)nc(NC3CCN(C(C)C)CC3)c2cc1OC
4. COc1cc2nc(N3CCCN(C)CC3)nc(NC3CCN(C(=O)CCCCCC(=O)NO)CC3)c2cc1OC
5. COc1cc2nc(NCCNC(=O)CCCCCCC(=O)NO)nc(NC3CCN(C)CC3)c2cc1OC
6. COc1ccc2c(NCCNC(=O)CCCCCC(=O)NO)nc(N3CCCN(C)CC3)nc2c1

45.7
7.14
66.6
97.5
96.7
60.6
